The values you see were collected from ChEMBL document CHEMBL1773047.

tested on: Trypanosoma brucei rhodesiense; test: Antiparasitic activity against Trypanosoma brucei rhodesiense STIB 900 bloodstream form after 72 hrs by microplate fluorimetry; assay type: functional, organism-based; settings: STIB 900, 72 h
Quantity: IC50 (µM)
Entry rule: numbers only, all in µM.

**Query** Please give the measured IC50 for this molecule: CC(=O)OC[C@H]1O[C@@H](OC/C=C(\C)CC/C=C(\C)CC/C=C(\C)CCC=C(C)C)[C@H](O[C@@H]2O[C@@H](C)[C@H](OC(C)=O)[C@@H](OC(C)=O)[C@H]2OC(C)=O)[C@@H](O)[C@@H]1O [CUPACINOSIDE]
**Result** 4.6

**Query** Please give the measured IC50 for this molecule: C=C(C)[C@@H]1CC[C@]2(CO)CC[C@]3(C)[C@H](CC[C@@H]4[C@@]5(C)CCC(=O)C(C)(C)[C@@H]5CC[C@]43C)[C@@H]12 [BETULONE]
**Result** 18.9

**Query** Please give the measured IC50 for this molecule: CC1(C)OC(=O)CC[C@]2(C)[C@H]3CC[C@H]4[C@@](C)(CC[C@@]5(C)C(C)(C)CCC[C@]45C)O[C@]3(C)CC[C@@H]12 [CUPACINOXEPIN]
**Result** 71.6

**Query** Please give the measured IC50 for this molecule: `CC(=O)O[C@@H]1[C@@H](OC(C)=O)[C@H](C)O[C@@H](O[C@H]2[C@H](OC/C=C(\C)CC/C=C(\C)CC/C=C(\C)CCC=C(C)C)O[C@H](CO)[C@@H](O)[C@@H]2O)[C@@H]1OC(C)=O`
**Result** 15.8
